test: Half life was determined; type: ADME, organism-based; conditions: rat, in vivo
property label: half-life (h)
One number for each entry, in h.

In: # lookup: half-life of `O=S(=O)(c1ccc2cc[nH]c2c1)N1CCC[C@@H]1CCN1CCC(Oc2ccc(Cl)cc2)CC1`
Out: 2

---

biological target: 5-hydroxytryptamine receptor 4 (Homo sapiens)
Sequence (Q13639 whole entry): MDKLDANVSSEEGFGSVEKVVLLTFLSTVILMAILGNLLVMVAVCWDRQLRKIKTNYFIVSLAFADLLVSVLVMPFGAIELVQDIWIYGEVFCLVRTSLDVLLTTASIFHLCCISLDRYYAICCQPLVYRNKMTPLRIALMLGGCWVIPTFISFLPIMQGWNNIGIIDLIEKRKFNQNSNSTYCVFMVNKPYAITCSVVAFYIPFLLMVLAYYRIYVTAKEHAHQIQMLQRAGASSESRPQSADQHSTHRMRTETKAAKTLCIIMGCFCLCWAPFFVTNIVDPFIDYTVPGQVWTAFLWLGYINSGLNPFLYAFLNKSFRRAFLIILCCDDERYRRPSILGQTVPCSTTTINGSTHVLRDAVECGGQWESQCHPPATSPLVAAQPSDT
property label: Ki (nM)
Give bare numbers, in nM.

In: Missing value: Ki, 5-hydroxytryptamine receptor 4 (Homo sapiens), entry `O=S(=O)(c1ccc2cc[nH]c2c1)N1CCC[C@@H]1CCN1CCC(Oc2ccc(Cl)cc2)CC1` . Fill in?
Out: 1910

---

target: UniProt P47898
Sequence (P47898 whole entry): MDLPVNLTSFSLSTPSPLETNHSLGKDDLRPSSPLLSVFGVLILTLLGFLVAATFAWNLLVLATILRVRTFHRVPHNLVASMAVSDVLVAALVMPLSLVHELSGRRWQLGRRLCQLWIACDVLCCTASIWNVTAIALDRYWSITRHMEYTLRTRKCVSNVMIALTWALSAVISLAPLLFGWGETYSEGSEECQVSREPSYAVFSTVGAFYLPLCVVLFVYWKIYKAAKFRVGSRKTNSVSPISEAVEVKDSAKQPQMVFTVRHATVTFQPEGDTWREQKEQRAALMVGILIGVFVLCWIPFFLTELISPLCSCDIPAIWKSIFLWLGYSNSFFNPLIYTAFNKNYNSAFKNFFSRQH
property label: Ki (µM)
One number for each entry, in µM.

In: # lookup: Ki of `O=S(=O)(c1ccc2cc[nH]c2c1)N1CCC[C@@H]1CCN1CCC(Oc2ccc(Cl)cc2)CC1`
Out: 0.182

---

target: UniProt:P34969; assay: Binding affinity for human cloned 5-hydroxytryptamine 7 receptor in HEK 293 using [3H]5-CT as a radioligand; type: cell-based, HEK293
property label: Ki (nM)
One number for each entry, in nM.

List Ki for every entry below, keeping the order given.
1. CC1CCN(CC[C@H]2CCCN2S(=O)(=O)c2ccc3cc[nH]c3c2)CC1
2. O=c1oc2ccccc2n1C1CCN(CC[C@H]2CCCN2S(=O)(=O)c2ccc3cc[nH]c3c2)CC1
3. O=S(=O)(c1ccc2cc[nH]c2c1)N1CCC[C@@H]1CCN1CCC(c2cc3ccccc3[nH]2)CC1

Out:
2.4
1.82
6.31

List Ki for every entry below, keeping the order given.
1. O=S(=O)(c1ccc2cc[nH]c2c1)N1CCC[C@@H]1CCN1CCC(Oc2ccc(F)cc2)CC1
2. CC1CCN(CC[C@H]2CCCN2S(=O)(=O)c2ccc3oc(O)nc3c2)CC1

Out:
1: 0.501; 2: 166

List Ki for every entry below, keeping the order given.
1. CC1CCN(CC[C@H]2CCCN2S(=O)(=O)c2ccc3[nH]c(O)nc3c2)CC1
2. O=C(c1ccc(F)cc1)C1CCN(CC[C@H]2CCCN2S(=O)(=O)c2ccc3cc[nH]c3c2)CC1
3. CC1CCN(CC[C@H]2CCCN2S(=O)(=O)c2ccc3[nH]nnc3c2)CC1
4. O=S(=O)(c1ccc2cc[nH]c2c1)N1CCC[C@@H]1CCN1CCC(c2c[nH]c3ccccc23)CC1
5. CC1CCN(CC[C@H]2CCCN2S(=O)(=O)c2ccc3c(c2)NCC3)CC1
6. CC1CCN(CC[C@H]2CCCN2S(=O)(=O)c2ccc3c[nH]nc3c2)CC1
7. O=S(=O)(c1ccc2cc[nH]c2c1)N1CCC[C@@H]1CCN1CCC(n2c(O)nc3ccccc32)CC1

Out:
1: 57.5; 2: 0.832; 3: 25.7; 4: 0.676; 5: 22.9; 6: 6.46; 7: 0.708

List Ki for every entry below, keeping the order given.
1. CC1CCN(CC[C@H]2CCCN2S(=O)(=O)c2ccc3[nH]cnc3c2)CC1
2. O=C(c1ccc(Cl)cc1)C1CCN(CC[C@H]2CCCN2S(=O)(=O)c2ccc3cc[nH]c3c2)CC1

Out:
[6.46, 0.794]

---

target: 5-hydroxytryptamine receptor 2C (Homo sapiens, UniProt P28335)
Sequence (P28335 whole entry): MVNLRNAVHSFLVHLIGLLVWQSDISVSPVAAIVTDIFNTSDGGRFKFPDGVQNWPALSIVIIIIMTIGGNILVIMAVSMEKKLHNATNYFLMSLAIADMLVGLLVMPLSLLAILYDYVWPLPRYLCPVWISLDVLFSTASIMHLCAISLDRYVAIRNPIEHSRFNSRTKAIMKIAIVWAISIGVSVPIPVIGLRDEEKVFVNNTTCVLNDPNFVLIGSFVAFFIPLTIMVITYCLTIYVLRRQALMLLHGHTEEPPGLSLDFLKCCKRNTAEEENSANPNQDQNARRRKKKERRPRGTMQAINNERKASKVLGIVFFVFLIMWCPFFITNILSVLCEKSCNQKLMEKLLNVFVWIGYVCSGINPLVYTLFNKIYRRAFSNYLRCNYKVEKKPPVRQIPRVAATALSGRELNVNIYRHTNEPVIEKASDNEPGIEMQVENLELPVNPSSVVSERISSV
property label: pKi
Give bare numbers, as −log10 of the molar value.

In: # lookup: pKi of `O=S(=O)(c1ccc2cc[nH]c2c1)N1CCC[C@@H]1CCN1CCC(Oc2ccc(Cl)cc2)CC1`
Out: 6.57

---

target: 5-hydroxytryptamine receptor 7 (Homo sapiens); assay: Compound was tested for its binding affinity in 5-hydroxytryptamine 7 receptor (using human cloned receptors in HEK 293 and [3H]5-CT as a radioligand ); assay type: cell-based, HEK293
Sequence (P34969 whole entry): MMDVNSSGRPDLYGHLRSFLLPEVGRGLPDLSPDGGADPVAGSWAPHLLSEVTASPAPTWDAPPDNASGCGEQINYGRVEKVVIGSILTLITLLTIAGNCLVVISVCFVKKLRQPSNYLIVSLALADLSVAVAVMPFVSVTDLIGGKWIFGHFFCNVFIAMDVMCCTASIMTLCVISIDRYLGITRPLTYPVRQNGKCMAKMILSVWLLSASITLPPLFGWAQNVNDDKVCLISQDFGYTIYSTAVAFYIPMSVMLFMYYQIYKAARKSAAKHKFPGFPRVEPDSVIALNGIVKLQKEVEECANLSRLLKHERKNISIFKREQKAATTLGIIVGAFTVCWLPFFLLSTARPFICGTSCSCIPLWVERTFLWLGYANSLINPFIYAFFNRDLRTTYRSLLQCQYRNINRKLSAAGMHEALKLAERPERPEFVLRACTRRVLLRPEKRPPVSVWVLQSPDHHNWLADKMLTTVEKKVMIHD
property label: Ki (nM)
Numbers only, in nM.

In: # lookup: Ki of `O=S(=O)(c1ccc2cc[nH]c2c1)N1CCC[C@@H]1CCN1CCC(Oc2ccc(Cl)cc2)CC1`
Out: 2

---

target: Alpha-1B adrenergic receptor (Homo sapiens, UniProt P35368)
Sequence (P35368 whole entry): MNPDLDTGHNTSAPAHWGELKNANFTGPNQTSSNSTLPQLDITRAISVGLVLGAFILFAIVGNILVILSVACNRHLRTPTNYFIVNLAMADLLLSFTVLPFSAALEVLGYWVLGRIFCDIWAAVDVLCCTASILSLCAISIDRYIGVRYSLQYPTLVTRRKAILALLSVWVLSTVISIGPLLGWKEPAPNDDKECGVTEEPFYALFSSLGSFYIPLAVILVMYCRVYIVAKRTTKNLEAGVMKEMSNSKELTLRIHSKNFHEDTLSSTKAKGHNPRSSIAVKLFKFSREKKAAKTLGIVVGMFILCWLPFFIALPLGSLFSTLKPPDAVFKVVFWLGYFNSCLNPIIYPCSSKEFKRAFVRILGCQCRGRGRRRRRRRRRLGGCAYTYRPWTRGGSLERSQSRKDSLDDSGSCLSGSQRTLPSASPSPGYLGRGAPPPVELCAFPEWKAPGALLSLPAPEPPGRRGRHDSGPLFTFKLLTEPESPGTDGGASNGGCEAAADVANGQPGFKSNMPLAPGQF
property label: pKi
Numbers only, as −log10 of the molar value.

List pKi for every entry below, keeping the order given.
1. O=c1oc2ccccc2n1C1CCN(CC[C@H]2CCCN2S(=O)(=O)c2ccc3cc[nH]c3c2)CC1
2. O=S(=O)(c1ccc2cc[nH]c2c1)N1CCC[C@@H]1CCN1CCC(Oc2ccc(F)cc2)CC1

Out:
[6.51, 7.52]

---

biological target: 5-hydroxytryptamine receptor 2A (Homo sapiens, UniProt P28223); assay: Compound was tested for its binding affinity for human cloned 5-hydroxytryptamine 2A receptor in HEK 293 using [3H]ketanserin as a radioligand; format: cell-based, HEK293
Sequence (P28223 whole entry): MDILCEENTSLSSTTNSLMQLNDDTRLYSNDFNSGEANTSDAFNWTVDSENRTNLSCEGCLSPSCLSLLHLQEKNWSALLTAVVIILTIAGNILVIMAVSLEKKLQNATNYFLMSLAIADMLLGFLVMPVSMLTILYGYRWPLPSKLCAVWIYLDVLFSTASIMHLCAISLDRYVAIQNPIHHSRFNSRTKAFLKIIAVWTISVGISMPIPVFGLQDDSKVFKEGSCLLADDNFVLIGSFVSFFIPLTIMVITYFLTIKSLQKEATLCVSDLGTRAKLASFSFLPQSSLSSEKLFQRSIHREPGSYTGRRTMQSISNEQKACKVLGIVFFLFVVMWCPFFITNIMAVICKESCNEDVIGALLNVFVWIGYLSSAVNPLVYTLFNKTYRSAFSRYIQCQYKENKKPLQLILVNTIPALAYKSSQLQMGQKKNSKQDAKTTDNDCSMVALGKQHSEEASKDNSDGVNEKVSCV
property label: Ki (µM)
Answers are plain numbers, in µM.

In: # lookup: Ki of `O=S(=O)(c1ccc2cc[nH]c2c1)N1CCC[C@@H]1CCN1CCC(Oc2ccc(Cl)cc2)CC1`
Out: 0.0631

---

experiment: Steady state brain :blood ratio was determined; type: ADME, organism-based; conditions: rat, brain and blood
Would you mind telling me the reported Kp of each entry?

| structure smiles | property label | measured |
| --- | --- | --- |
| O=S(=O)(c1ccc2cc[nH]c2c1)N1CCC[C@@H]1CCN1CCC(Oc2ccc(Cl)cc2)CC1 | Kp | 0.9 |

In: # lookup: Kp of `CC1CCN(CC[C@H]2CCCN2S(=O)(=O)c2cccc(O)c2)CC1.Cl`
Out: 0.8
